Ki values for Protein deacetylase HDAC6 (Homo sapiens), compiled from several publications.
Biological target: Protein deacetylase HDAC6 (Homo sapiens)
Sequence (Q9UBN7 whole entry): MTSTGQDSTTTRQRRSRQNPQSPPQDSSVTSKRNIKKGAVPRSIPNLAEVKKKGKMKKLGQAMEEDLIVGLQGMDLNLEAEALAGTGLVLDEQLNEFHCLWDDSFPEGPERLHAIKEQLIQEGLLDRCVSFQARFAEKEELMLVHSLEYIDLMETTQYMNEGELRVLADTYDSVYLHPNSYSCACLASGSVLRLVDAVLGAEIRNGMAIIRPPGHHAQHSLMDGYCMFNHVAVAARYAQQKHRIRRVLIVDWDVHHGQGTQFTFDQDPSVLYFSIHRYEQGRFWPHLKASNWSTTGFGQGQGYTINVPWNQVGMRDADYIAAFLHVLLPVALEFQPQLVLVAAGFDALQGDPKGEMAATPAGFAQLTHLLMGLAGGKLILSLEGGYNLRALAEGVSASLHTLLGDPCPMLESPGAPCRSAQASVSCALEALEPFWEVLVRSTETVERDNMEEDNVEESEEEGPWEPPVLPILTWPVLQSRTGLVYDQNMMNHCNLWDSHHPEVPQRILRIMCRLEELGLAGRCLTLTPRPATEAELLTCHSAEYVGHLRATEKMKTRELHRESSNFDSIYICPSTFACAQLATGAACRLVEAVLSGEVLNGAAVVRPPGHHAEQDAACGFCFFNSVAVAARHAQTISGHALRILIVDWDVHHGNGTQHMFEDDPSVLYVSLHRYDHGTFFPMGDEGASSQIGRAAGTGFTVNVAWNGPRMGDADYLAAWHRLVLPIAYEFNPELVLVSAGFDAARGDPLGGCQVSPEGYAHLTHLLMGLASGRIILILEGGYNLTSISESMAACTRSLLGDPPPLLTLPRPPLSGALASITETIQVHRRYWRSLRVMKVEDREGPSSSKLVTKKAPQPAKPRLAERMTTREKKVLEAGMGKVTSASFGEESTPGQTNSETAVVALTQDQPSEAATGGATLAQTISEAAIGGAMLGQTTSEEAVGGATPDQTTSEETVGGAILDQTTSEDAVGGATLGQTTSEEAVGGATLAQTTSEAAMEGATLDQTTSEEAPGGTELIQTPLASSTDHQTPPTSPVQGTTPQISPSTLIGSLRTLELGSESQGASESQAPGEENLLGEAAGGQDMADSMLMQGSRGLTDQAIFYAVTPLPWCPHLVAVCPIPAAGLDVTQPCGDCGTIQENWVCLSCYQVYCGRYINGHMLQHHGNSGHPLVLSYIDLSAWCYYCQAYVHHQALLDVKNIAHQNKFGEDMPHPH

Query: Specify measured Ki for CCCCCCc1nc2cc(/C=C/C(=O)NO)ccc2n1CCNC(C)C .
Response: 348 nM

Query: Specify measured Ki for Cc1cccc(NC(=O)C(F)(F)C(F)(F)C(F)(F)C(F)(F)C(F)(F)C(F)(F)C(=O)NO)c1 .
Response: > 50000 nM

Query: Specify measured Ki for O=C(NO)C(F)(F)C(F)(F)C(F)(F)C(F)(F)C(F)(F)C(F)(F)C(=O)Nc1ccc(F)cc1 .
Response: > 50000 nM

Query: Specify measured Ki for Cc1ccccc1NC(=O)C(F)(F)C(F)(F)C(F)(F)C(F)(F)C(F)(F)C(F)(F)C(=O)NO .
Response: > 50000 nM

Query: Specify measured Ki for COc1ccc(NC(=O)C(F)(F)C(F)(F)C(F)(F)C(F)(F)C(F)(F)C(F)(F)C(=O)NO)cc1 .
Response: > 50000 nM

Query: Specify measured Ki for NCCCn1cc(CNc2ccc(C(=O)NCCCCCCC(=O)NO)cc2)nn1 .
Response: 6.6 nM

Query: Specify measured Ki for O=C(/C=C/c1ccc2c(c1)nc(CCc1ccccc1)n2CCN1CCCC1)NO .
Response: 20 nM

Query: Specify measured Ki for O=C(NO)C(F)(F)C(F)(F)C(F)(F)C(F)(F)C(F)(F)C(F)(F)C(=O)Nc1ccccc1Cl .
Response: > 50000 nM
